experiment: Serum theophylline level by fluorescence polarization; type: in vivo, human; conditions: human, serum, other: intranasal, 20 μg per naris; during intranasal treatment
Outcome measure: concentration at 4 weeks

Enquiry: What concentration at 4 weeks value was documented for this compound, Cn1c(=O)c2[nH]cnc2n(C)c1=O [theophylline] ?
Return: 0 ng/mL
